- assayedSystem: tau (Homo sapiens, UniProt P10636)
- Sequence (P10636 623-695 limits assumed): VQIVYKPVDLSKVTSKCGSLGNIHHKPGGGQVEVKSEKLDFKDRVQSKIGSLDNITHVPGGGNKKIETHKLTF
- experimentDescription: MCE Phenols Library screening, tau biosensor cell seeding assay (AvZ)
- Assay type: cell-based
- settings: puncta, replicate 1
measurementKind: raw data 1
Answer with a bare number; do not write a unit.

Take a look at these entries with their results.
compound	raw data 1
Cc1cc(=O)oc2c(O)c(O)ccc12 [4-Methyldaphnetin]	13895.3
COc1cc2c(cc1O)CCN1Cc3c(ccc(OC)c3OC)CC21 (stereo not shown) [Corypalmine]	29892.4
COc1cc(C(=O)OCCCCNC(=N)N)cc(OC)c1O [Leonurine]	43747.9

Next up:
[ask] Which raw data 1 reading was recorded for the compound OC[C@H]1O[C@@H](Oc2cc3c(O)cc(O)cc3[o+]c2-c2ccc(O)c(O)c2)[C@H](O)[C@@H](O)[C@@H]1O.[Cl-] [Kuromanin (chloride)] ?
[reply] 25345.8

====

- assayedSystem: tau (Homo sapiens)
- experimentDescription: MCE Phenols Library screening, tau biosensor cell seeding assay (AvZ)
- Format: cell-based
- settings: average of raw data 1 and 2
measurementKind: av puncta
Answer with a bare number; do not write a unit.

Take a look at these entries with their results.
molecule	numericValue
O=C(O)CC(=O)OC[C@H]1O[C@@H](Oc2c(-c3ccc(O)c(O)c3)oc3cc(O)cc(O)c3c2=O)[C@H](O)[C@@H](O)[C@@H]1O	10843.5
O=c1c(O)cc([C@H]2Oc3cc(O)cc(O)c3C[C@H]2O)cc2c([C@H]3Oc4cc(O)cc(O)c4C[C@H]3O)cc(O)c(O)c12 [Theaflavin]	9279.59

Next up:
[ask] Value wanted: av puncta (tau (Homo sapiens)) of entry O=c1cc(-c2ccc(O)cc2)oc2c([C@@H]3O[C@H](CO)[C@@H](O)[C@H](O)[C@H]3O)c(O)c([C@@H]3OC[C@H](O)[C@H](O)[C@H]3O)c(O)c12 [Isoschaftoside]
[reply] 18128.6

====

- assayedSystem: tau (Homo sapiens)
- experimentDescription: MCE Phenols Library screening, tau biosensor cell seeding assay (AvZ)
- Type: cell-based
- settings: Z score, replicate 2
measurementKind: Z Repl 2
Answer with a bare number; do not write a unit.

compound	measurementKind	numericValue
O=C1O[C@@H]2[C@@H](O)[C@H](O)[C@@H](CO)O[C@H]2c2c1cc(O)c(O)c2O	Z Repl 2	0.442
CC(=O)OCCc1ccc(O)c(O)c1 [Hydroxytyrosol acetate]	Z Repl 2	-1.049

[ask] Which Z Repl 2 reading was recorded for the compound `O=C1C[C@@H](c2ccc(O)cc2)Oc2cc(O[C@@H]3O[C@H](CO)[C@@H](O)[C@H](O)[C@H]3O)cc(O)c21` ?
[reply] 0.469

[ask] And O=C1c2c(O)cccc2C([C@@H]2O[C@H](CO)[C@@H](O)[C@H](O)[C@H]2O)c2cc(CO)cc(O)c21 (stereo partly shown) [Aloin(mixture of A&B)] ?
[reply] -0.332

====

- assayedSystem: tau (Homo sapiens, UniProt P10636)
- experimentDescription: MCE Phenols Library screening, tau biosensor cell seeding assay (AvZ)
- Type: cell-based
- settings: average Z score of two replicates, Phenols Library screen
measurementKind: av Z
Answer with a bare number; do not write a unit.

molecule	numericValue
CC(Cc1ccc(O)c(O)c1)C(C)Cc1ccc(O)c(O)c1 (stereo not shown) [Nordihydroguaiaretic acid]	-0.157
COc1cc(O)c(C(=O)/C=C/c2ccccc2)c(OC)c1	-0.179
COc1cc(O)c2c(=O)c(O)c(-c3ccc(O)c(O)c3)oc2c1	-0.117
CC(C)c1cc2c(c(O)c1O)[C@@]13CCCC(C)(C)[C@@H]1C[C@@H]2OC3=O	-0.006

Next up:
[ask] Which av Z reading was recorded for the molecule CC(=O)O[C@H]1C(=O)c2c(O)cc(O)cc2O[C@@H]1c1ccccc1 [Pinobanksin 3-acetate] ?
[reply] 0.037

====

// av Z lookup, one value per entry
- assayedSystem: UniProt P10636
- experimentDescription: MCE Phenols Library screening, tau biosensor cell seeding assay (AvZ)
- Format: cell-based
- settings: average Z score of the two replicates, MCE Phenols Library screen

compound	assayedSystem	measurementKind	result
O=c1cc(-c2ccc(O)c(-c3c(O)cc(O)c4c(=O)cc(-c5ccc(O)cc5)oc34)c2)oc2cc(O)cc(O)c12 [Amentoflavone]	UniProt P10636	av Z	-0.589
O=c1c(O)c(-c2ccc(O)c(O)c2)oc2cc(O[C@@H]3O[C@H](CO)[C@@H](O)[C@H](O)[C@H]3O)c(O)c(O)c12 [Quercetagitrin]	UniProt P10636	av Z	-1.376

Next up:
[ask] Which av Z reading was recorded for the compound O=C(O)C[C@@H]1C(=O)O[C@H]2[C@@H]3OC(=O)c4cc(O)c(O)c(O)c4-c4c(cc(O)c(O)c4O)C(=O)OC[C@H]2O[C@@H](OC(=O)c2cc(O)c(O)c(O)c2)[C@@H]3OC(=O)c2cc(O)c(O)c3c2[C@H]1[C@H](O)C(=O)O3 [Chebulagic acid] ?
[reply] -1.662

====

- assayedSystem: tau (Homo sapiens)
- experimentDescription: MCE Phenols Library screening, tau biosensor cell seeding assay (AvZ)
- Type: cell-based
- settings: average Z score of the two replicates, MCE Phenols Library screen
Note to self: use y only for av Z readings below -0.6; a reading exactly at -0.6 still gets n.

compound	assignedLabel
O=c1c(-c2ccc(O)c(O)c2)coc2c([C@@H]3O[C@H](CO)[C@@H](O)[C@H](O)[C@H]3O)c(O)ccc12 [3'-Hydroxypuerarin]	n
COc1cc(/C=C/C(=O)O[C@H]2[C@H](O)[C@@H](CO)O[C@@]2(CO)O[C@H]2O[C@H](COC(=O)c3ccc(O)cc3)[C@@H](O)[C@H](O)[C@H]2O)cc(OC)c1O [Tenuifoliside B]	n
OC[C@H]1O[C@@H](Oc2cc3c(O)cc(O)cc3[o+]c2-c2ccc(O)c(O)c2)[C@H](O)[C@@H](O)[C@@H]1O.[Cl-] [Kuromanin (chloride)]	n

[ask] Confirm or reject: av Z of `Oc1ccc2c(c1)OCO2` lies strictly below -0.6
[reply] n

[ask] And `O=C(CCc1ccc(O)c(O)c1)NCCCNCCCCNCCCNC(=O)CCc1ccc(O)c(O)c1` ?
[reply] n

[ask] And `O=c1c(O)cc([C@H]2Oc3cc(O)cc(O)c3C[C@H]2O)cc2c([C@H]3Oc4cc(O)cc(O)c4C[C@H]3O)cc(O)c(O)c12` ?
[reply] y

[ask] And `O=c1c(O)c(-c2ccc(O)c(O)c2)oc2cc(O)c(O)c(O)c12` ?
[reply] y

====

- assayedSystem: UniProt:P10636
- experimentDescription: MCE Phenols Library screening, tau biosensor cell seeding assay (AvZ)
- Type: cell-based
- settings: raw puncta, replicate 1
// raw data 1 lookup, one value per entry
Answer with a bare number; do not write a unit.

[ask] Which raw data 1 reading was recorded for the molecule COc1cc(-c2oc3cc(O)cc(O)c3c(=O)c2O[C@@H]2O[C@H](CO[C@@H]3O[C@@H](C)[C@H](O)[C@@H](O)[C@H]3O)[C@@H](O)[C@H](O)[C@H]2O)ccc1O [Narcissin] ?
[reply] 29338.6

[ask] And COc1c(O)cc2oc(-c3ccccc3)cc(=O)c2c1O [Oroxylin A] ?
[reply] 25029.5

[ask] And COc1cc2c(cc1O)-c1c(OC)c(O)cc3c1[C@H](C2)NCC3 [Laetanine] ?
[reply] 20251.6

[ask] And COc1cccc(OC)c1C(=O)OCc1cc(O)ccc1O[C@@H]1O[C@H](CO)[C@@H](O)[C@H](O)[C@H]1O [Curculigoside] ?
[reply] 17078.1

[ask] And O=C1c2ccccc2C(=O)c2c1ccc(O)c2O [Alizarin] ?
[reply] 18305.8

====

- assayedSystem: tau (Homo sapiens)
- experimentDescription: MCE Phenols Library screening, tau biosensor cell seeding assay (AvZ)
- Assay type: cell-based
- settings: average Z score of two replicates, Phenols Library screen
Note to self: use satisfied only for av Z readings below -0.1; a reading exactly at -0.1 still gets not satisfied.

molecule	assayedSystem	assignedLabel
COc1ccc(-c2cc(=O)c3c(O)c(OC)c(OC)cc3o2)cc1OC [5-Desmethylsinensetin]	tau (Homo sapiens)	satisfied
O=c1cc(-c2ccc(O)cc2)oc2cc(O[C@@H]3O[C@H](CO)[C@@H](O)[C@H](O)[C@H]3O)cc(O)c12 [Apigenin 7-glucoside]	tau (Homo sapiens)	not satisfied
COc1c(O[C@@H]2O[C@H](CO)[C@@H](O)[C@H](O)[C@H]2O)cc2oc(-c3ccc(O)cc3)cc(=O)c2c1O [Homoplantaginin]	tau (Homo sapiens)	satisfied
Oc1ccc([C@H]2Oc3cc(O)cc(O)c3C[C@H]2O)cc1 [(-)-Epiafzelechin]	tau (Homo sapiens)	not satisfied
COc1cc(O)cc(O)c1C(=O)/C=C/c1ccccc1 [Cardamonin]	tau (Homo sapiens)	satisfied

[ask] Confirm or reject: av Z of COc1ccc(-c2coc3cc(O)ccc3c2=O)cc1O [Calycosin] lies strictly below -0.1
[reply] not satisfied

[ask] And C=C(C)[C@H](CC=C(C)C)Cc1c(O)cc(O)c2c1O[C@H](c1ccc(O)cc1OC)CC2=O [Leachianone A] ?
[reply] satisfied

[ask] And COc1cc2c(cc1O)CCN1Cc3c(ccc(OC)c3OC)CC21 (centres unmarked) [Corypalmine] ?
[reply] satisfied
